Molecular target: human TSHR (Homo sapiens, UniProt P16473)
Construct: expressed in transfected cells
Sequence (P16473 21-764): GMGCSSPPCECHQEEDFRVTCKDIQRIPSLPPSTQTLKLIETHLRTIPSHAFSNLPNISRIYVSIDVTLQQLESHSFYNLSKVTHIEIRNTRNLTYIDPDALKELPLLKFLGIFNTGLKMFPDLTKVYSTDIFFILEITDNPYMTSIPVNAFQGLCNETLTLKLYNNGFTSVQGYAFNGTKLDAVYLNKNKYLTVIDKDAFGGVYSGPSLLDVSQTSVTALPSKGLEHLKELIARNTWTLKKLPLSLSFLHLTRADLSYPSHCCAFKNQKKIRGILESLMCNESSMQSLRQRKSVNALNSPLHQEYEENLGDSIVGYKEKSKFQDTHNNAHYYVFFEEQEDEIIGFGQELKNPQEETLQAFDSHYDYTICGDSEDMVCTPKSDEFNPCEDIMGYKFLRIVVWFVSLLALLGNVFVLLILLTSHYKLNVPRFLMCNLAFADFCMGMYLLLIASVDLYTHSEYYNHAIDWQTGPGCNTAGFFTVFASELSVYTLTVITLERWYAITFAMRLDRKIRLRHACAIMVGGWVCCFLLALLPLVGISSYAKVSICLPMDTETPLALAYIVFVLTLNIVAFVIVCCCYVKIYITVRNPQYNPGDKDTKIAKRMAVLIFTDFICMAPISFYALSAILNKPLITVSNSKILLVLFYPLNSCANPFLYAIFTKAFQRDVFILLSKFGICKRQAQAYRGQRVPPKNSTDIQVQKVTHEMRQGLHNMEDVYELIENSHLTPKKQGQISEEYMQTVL
Assay: Homogeneous Time Resolved Fluorescence (HTRF) cAMP assay, TSHR cell line
Type: cell-based
Details: AC50, HTRF cAMP, TSHR cell line, 30 minute incubation
test_readout: AC50 (µM)
Write down the numeric answer in µM and omit the unit.

Record request: AC50 value, item COc1ccc(C2Nc3ccccc3C(=O)N2Cc2ccccc2)cc1COc1ccc(NC(C)=O)cc1 (single isomer, unassigned) [Structure 26]
10

Record request: AC50 value, item COc1ccc(C2Nc3ccccc3C(=O)N2Cc2ccccc2)cc1COc1ccc(NC(C)=O)cc1 (single isomer, unassigned) [Structure 37]
8.91

Further cases:
Record request: AC50 value, item COc1ccc(C2Nc3ccccc3C(=O)N2Cc2ccccc2)cc1COc1ccc(NC(C)=O)cc1 (single isomer, unassigned) [Structure 62]
7.08

Record request: AC50 value, item COc1ccc(C2Nc3ccccc3C(=O)N2Cc2ccccc2)cc1COc1ccc(NC(C)=O)cc1 (single isomer, unassigned) [Structure 49]
3.55
